Measured EC50, listed per entry for reference.
Target: T1, TNFR2 on human K562 chronic myeloid leukemia cells and on primary human Treg cells (human, UniProt P20333 23-461)
T1 construct: whole, on cells; also called K562 cells
T1 sequence (looked up): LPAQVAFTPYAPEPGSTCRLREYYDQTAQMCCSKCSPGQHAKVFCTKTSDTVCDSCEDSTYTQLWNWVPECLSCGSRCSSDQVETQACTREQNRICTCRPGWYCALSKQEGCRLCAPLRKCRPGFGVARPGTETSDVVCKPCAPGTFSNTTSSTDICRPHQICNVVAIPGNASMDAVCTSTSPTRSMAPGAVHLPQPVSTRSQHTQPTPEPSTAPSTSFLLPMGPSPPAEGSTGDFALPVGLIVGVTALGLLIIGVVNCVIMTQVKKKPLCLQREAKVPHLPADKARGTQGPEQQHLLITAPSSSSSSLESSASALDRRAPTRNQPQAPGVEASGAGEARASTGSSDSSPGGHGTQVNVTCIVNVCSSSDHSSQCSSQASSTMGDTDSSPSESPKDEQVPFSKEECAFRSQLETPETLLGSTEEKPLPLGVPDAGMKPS
Assay: flow cytometry on human K562 CML cells, MFI(FL2); unit taken from the axis Conc log(nM)
measured_endpoint: EC50

{"columns": ["binder", "result"],
 "data": [
  ["humanized antibody hz69B1.20 (antibody, human IgG1, kappa, V domains shown) VH: QIQLVQSGSELKKPGASVKVSCKASGYTFTDYSMNWVRQAPGQGLEWMGWLNTETGEPIYADDFKGRFVFSLDTSVSTAYLQISSLKAEDTAVYFCAREAIYYGTSYVLDYWGQGTLVTVSS VL: DIVLTQSPASLAVSPGQRATITCRASESVEYYGTNFMQWYQQKPGQPPKLLIYSASNVESGVPARFSGSGSGTDFTLTINPVEAQDTANYFCQQSRKDPSTFGQGTKLEIKR", "0.0549 nM"],
  ["positive control antibody OPI (humanized antibody SBT-002e in WO 2017083525) (antibody, V domains shown, also called Benchmark OPI) VH: QVTLKESGPALVKPTQTLTLTCTFSGFSLSTSGMGVGWIRQPPGKALEWLAHIWWDDDKFYNPSLKSRLTISKDTSKNQVVLTMTNMDPVDTATYYCARLTGTRYFDYWGQGTTVTVSS VL: DVQMTQSPSSLSASVGDRVTITCKASQDINKFIAWYQQKPGKAPKLLIHYTSTLQPGIPSRFSGSGSGRDYTFTISSLQPEDIATYYCLQYGNLWTFGGGTKVEIK", "0.0916 nM"],
  ["humanized antibody hz3C4.7 (antibody, human IgG1, kappa, V domains shown) VH: QVQLVQSGAEVKKPGASVKVSCKASDYSFTNYYIHWVRQAPGQGLEWMGWIYPGNVITKYHEKFKGRVTMTADTSTSTAYMELSSLRSEDTAVYYCARSRATGYFDYWGQGTLVTVSS VL: DIQMTQSPSSLSASVGDRVTITCRASQDIRNYLNWYQQKPGKAPKLLIYYTSRLHSGVPSRFSGSGSGTDYTLTISSLQPEDFATYYCQQFNTLPWTFGGGTKVEIKR", "0.0356 nM"],
  ["humanized antibody hz69B1.5 (antibody, human IgG1, kappa, V domains shown) VH: QIQLVQSGSELKKPGASVKVSCKASGYTFTDYSMNWVRQAPGQGLEWMGWLNTETGEPIYADDFKGRFVFSLDTSVSTAYLQISSLKAEDTAVYFCAREAIYYGTSYVLDYWGQGTLVTVSS VL: DIVLTQSPASLAVSPGQRATITCRASESVEYYGTNFMQWYQQKPGQPPKLLIYSASNVESGVPARFSGSGSGTDFTLTINPVEANDTANYYCQQSRKDPSTFGQGTKLEIKR", "0.0613 nM"]
]}
